TARGET_OR_TEST_SYSTEM: PI3Kδ (Homo sapiens, UniProt O00329)
Construct: made in house
Sequence (O00329 whole entry): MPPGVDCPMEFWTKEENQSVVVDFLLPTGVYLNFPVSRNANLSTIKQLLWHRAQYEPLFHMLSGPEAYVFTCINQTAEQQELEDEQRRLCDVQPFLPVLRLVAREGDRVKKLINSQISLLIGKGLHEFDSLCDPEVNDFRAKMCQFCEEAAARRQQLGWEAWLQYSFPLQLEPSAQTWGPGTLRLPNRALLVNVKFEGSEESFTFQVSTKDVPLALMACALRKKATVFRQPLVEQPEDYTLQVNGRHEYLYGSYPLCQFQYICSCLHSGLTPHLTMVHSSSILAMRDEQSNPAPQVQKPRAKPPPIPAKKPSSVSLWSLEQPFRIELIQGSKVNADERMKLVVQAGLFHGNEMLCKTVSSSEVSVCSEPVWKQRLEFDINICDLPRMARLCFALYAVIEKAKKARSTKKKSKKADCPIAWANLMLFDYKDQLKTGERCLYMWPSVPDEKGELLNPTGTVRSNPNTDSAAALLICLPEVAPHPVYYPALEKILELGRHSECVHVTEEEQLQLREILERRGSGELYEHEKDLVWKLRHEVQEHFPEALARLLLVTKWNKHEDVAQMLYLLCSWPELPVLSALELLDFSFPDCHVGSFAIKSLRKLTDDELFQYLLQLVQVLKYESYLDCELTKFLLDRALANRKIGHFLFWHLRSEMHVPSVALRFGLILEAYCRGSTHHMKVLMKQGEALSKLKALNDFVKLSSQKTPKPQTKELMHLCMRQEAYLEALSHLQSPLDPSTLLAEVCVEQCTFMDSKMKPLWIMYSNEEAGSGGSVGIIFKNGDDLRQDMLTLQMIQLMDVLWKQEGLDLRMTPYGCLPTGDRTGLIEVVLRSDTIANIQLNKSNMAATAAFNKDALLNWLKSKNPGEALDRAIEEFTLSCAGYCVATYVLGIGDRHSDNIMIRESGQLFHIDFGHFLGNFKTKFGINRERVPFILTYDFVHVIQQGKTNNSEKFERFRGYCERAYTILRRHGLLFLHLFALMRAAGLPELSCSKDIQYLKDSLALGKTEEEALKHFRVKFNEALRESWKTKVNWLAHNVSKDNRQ
Sequence (P27986 whole entry partner): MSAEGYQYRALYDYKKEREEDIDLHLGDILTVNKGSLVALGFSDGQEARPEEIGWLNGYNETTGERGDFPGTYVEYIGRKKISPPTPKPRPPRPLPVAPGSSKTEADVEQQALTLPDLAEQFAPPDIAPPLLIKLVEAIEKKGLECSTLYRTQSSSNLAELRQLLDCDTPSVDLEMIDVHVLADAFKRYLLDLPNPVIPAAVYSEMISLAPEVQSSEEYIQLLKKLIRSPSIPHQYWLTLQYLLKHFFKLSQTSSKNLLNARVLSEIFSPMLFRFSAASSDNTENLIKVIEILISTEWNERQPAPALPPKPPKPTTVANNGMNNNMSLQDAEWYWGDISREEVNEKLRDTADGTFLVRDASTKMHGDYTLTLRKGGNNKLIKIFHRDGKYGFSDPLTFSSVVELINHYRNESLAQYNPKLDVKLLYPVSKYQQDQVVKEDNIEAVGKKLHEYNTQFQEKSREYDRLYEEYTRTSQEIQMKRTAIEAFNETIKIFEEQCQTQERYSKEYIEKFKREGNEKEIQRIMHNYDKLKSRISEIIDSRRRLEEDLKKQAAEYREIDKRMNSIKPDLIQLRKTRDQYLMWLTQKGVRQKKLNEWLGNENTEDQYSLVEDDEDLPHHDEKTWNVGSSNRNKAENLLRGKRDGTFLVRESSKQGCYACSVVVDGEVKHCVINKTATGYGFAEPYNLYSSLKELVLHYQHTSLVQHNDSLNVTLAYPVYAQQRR
ASSAY_SUMMARY: TR-FRET enzymatic activity assay, PI3Kδ
Assay type: biochemical
CONDITION_DESCRIPTION: Table 2a; same assay
pIC50: −log10 of the molar value.
Given measured pIC50, output 1.0 if it is greater than or equal to 8 and 0.0 if not.

Record excerpt, results attached:
N#Cc1c(N)nc(N)nc1N[C@H](c1nc2ccc(F)c(Cl)c2c(=O)n1-c1cc[nH]n1)C1CC1 [Compound 262] :: 1.0
Cc1n[nH]cc1-n1c([C@H](C)Nc2nc(N)nc(N)c2C#N)nc2cccc(Cl)c2c1=O [Compound 216] :: 1.0
C[C@H](Nc1ncnc2scc(C#N)c12)c1nc2cccc(Cl)c2c(=O)n1-c1cc[nH]n1 [Compound 202] :: 1.0

Lookup: # bool: pIC50 of C[C@H](Nc1nc(N)nc(N)c1C#N)c1nc2c(C#N)cc(F)cc2c(=O)n1-c1cc[nH]n1 [Compound 272] >= 8
Found: 1.0

Lookup: # bool: pIC50 of C[C@H](Nc1nc(N)nc(N)c1Cl)c1nc2c(Cl)cc(F)cc2c(=O)n1-c1n[nH]cc1Br [Compound 270] >= 8
Found: 0.0

Lookup: # bool: pIC50 of Nc1nc(N)c(Cl)c(N[C@H](c2nc3c(F)cc(F)cc3c(=O)n2-c2cc[nH]n2)C2CC2)n1 [Compound 162] >= 8
Found: 1.0

Lookup: # bool: pIC50 of C[C@H](Nc1nc(N)nc(N)c1Cl)c1nc2c(Cl)cc(F)cc2c(=O)n1-c1cn[nH]c1 [Compound 265] >= 8
Found: 0.0

Lookup: # bool: pIC50 of C[C@H](Nc1nc(N)nc(N)c1C#N)c1nc2ccc(F)c(Cl)c2c(=O)n1-c1cn[nH]c1 [Compound 264] >= 8
Found: 1.0

Lookup: # bool: pIC50 of C[C@H](Nc1ncnc2scnc12)c1nc2cccc(Cl)c2c(=O)n1-c1ccc[nH]1 [Compound 290] >= 8
Found: 1.0

Lookup: # bool: pIC50 of C[C@H](Nc1nc(N)nc(N)c1C#N)c1nc2c(C(F)F)cc(F)cc2c(=O)n1-c1cc[nH]n1 [Compound 140] >= 8
Found: 1.0

Lookup: # bool: pIC50 of C[C@H](Nc1ncnc2scc(Br)c12)c1nc2cccc(Cl)c2c(=O)n1-c1cc[nH]n1 [Compound 150] >= 8
Found: 1.0

Lookup: # bool: pIC50 of N#Cc1c(N)nc(N)nc1N[C@H](c1nc2cccc(C(F)F)c2c(=O)n1-c1cc[nH]n1)C1CCC1 [Compound 131] >= 8
Found: 1.0

Lookup: # bool: pIC50 of C[C@H](Nc1nc(N)nc(N)c1C#N)c1nc2cccc(C(F)(F)F)c2c(=O)n1-c1cc[nH]n1 [Compound 205] >= 8
Found: 1.0

Lookup: # bool: pIC50 of C[C@H](Nc1nc(N)nc(N)c1C(F)(F)F)c1nc2cccc(Cl)c2c(=O)n1-c1cc[nH]n1 [Compound 201] >= 8
Found: 1.0

Lookup: # bool: pIC50 of C[C@H](Nc1nc(N)nc(N)c1C#N)c1nc2c(Cl)cc(F)cc2c(=O)n1-c1cn[nH]c1 [Compound 266] >= 8
Found: 1.0

Lookup: # bool: pIC50 of N#Cc1c(N)nc(N)nc1N[C@H](c1nc2c(Cl)cc(F)cc2c(=O)n1-c1cc[nH]n1)C1CCC1 [Compound 130] >= 8
Found: 1.0

Lookup: # bool: pIC50 of N#Cc1cc(F)cc2c(=O)n(-c3cc[nH]n3)c([C@@H](Nc3nc(N)nc(N)c3Cl)C3CC3)nc12 [Compound 273] >= 8
Found: 0.0

Lookup: # bool: pIC50 of CCC[C@H](Nc1nc(N)nc(N)c1C#N)c1nc2cccc(Cl)c2c(=O)n1-c1cc[nH]n1 [Compound 253] >= 8
Found: 1.0

Lookup: # bool: pIC50 of C[C@H](Nc1nc(N)nc(N)c1C#N)c1nc2c(F)cc(F)cc2c(=O)n1-c1cc[nH]n1 [Compound 169] >= 8
Found: 1.0

Lookup: # bool: pIC50 of Cc1ccc(Cl)c2nc([C@H](C)Nc3nc(N)nc(N)c3C#N)n(-c3cc[nH]n3)c(=O)c12 [Compound 222] >= 8
Found: 1.0

Lookup: # bool: pIC50 of N#Cc1c(N[C@H](c2nc3c(Cl)cccc3c(=O)n2-c2cc[nH]n2)C2CC2)nc(N)nc1C(F)F [Compound 196] >= 8
Found: 0.0

Lookup: # bool: pIC50 of N#Cc1c(N[C@H](c2nc3c(F)ccc(Cl)c3c(=O)n2-c2cc[nH]n2)C2CC2)nc(N)nc1C(F)F [Compound 194] >= 8
Found: 0.0
